PROTOCOL TEXT: in vivo
Design: species or system female C3H/HeN mice
EXPERIMENTAL CONDITIONS: mouse, brain, iv, 40 mg/kg, 40 mg.kg^-1 i.v., 14h after dose, individual animals IV1-IV4, read-out: Brain product Ic concentration
REPORTED ENDPOINT: concentration at 14 h (ng/g)
Please reply with the bare figure in ng/g and do not write the unit itself.

Prompt: Report concentration at 14 h, nothing else, for this compound: CO[C@H]1C(=O)[C@]2(C)[C@@H](OC)C[C@H]3OC[C@@]3(OC(C)=O)[C@H]2[C@H](OC(=O)c2ccccc2)[C@]2(O)C[C@H](OC(=O)[C@H](O)[C@@H](NC(=O)OC(C)(C)C)c3ccccc3)C(C)=C1C2(C)C
Completion: 9620

Sourced from patent EP0982027A1
